We begin with a simple list: items and their reported shrunken log2 fold change.
test system: Escherichia coli TOP10; assay: shrunken log2 fold change of peptide-encoding DNA abundance (4.5 h post-induction vs induction); higher = less antimicrobial activity (less host growth inhibition); details: time post-induction: 4.5 h; library: site-saturation at positions 5, 18, 19, 20
Write the value as a bare number.

Recorded shrunken log2 fold change, per entry:
RRIRDRPPRLPRPRPRPMYIPRP
-0.148
RRIRRRPPRLPRPRPRPTPQPRP
1.52
RRIRSRPPRLPRPRPRPRHHPRP
-0.163
RRIRIRPPRLPRPRPRPYVFPRP
-0.0874

*Q* I have this sequence here, RRIRMRPPRLPRPRPRPWDMPRP , and I need its recorded shrunken log2 fold change.
*A* 0.00416

*Q* I have this sequence here, RRIRMRPPRLPRPRPRPICRPRP , and I need its recorded shrunken log2 fold change.
*A* 0.297

*Q* I have this sequence here, RRIRGRPPRLPRPRPRPEEYPRP , and I need its recorded shrunken log2 fold change.
*A* 0.0595

* * *

We begin with a simple list: items and their reported shrunken log2 fold change.
tested on: Escherichia coli TOP10; assay: shrunken log2 fold change of peptide-encoding DNA abundance (4.5 h post-induction vs induction); higher = less antimicrobial activity (less host growth inhibition); conditions: time post-induction: 4.5 h; library: site-saturation at positions 5, 18, 19, 20
Write the value as a bare number.

RRIRKRPPRLPRPRPRPMDLPRP
0.198
RRIRNRPPRLPRPRPRPPCPPRP
0.309
RRIRWRPPRLPRPRPRPHGHPRP
-0.0213

*Q* I have this sequence here, RRIRNRPPRLPRPRPRPEPAPRP , and I need its recorded shrunken log2 fold change.
*A* 0.88

*Q* I have this sequence here, RRIRPRPPRLPRPRPRPQGSPRP , and I need its recorded shrunken log2 fold change.
*A* 0.0552

*Q* I have this sequence here, RRIRTRPPRLPRPRPRPAIGPRP , and I need its recorded shrunken log2 fold change.
*A* 0.1

*Q* I have this sequence here, RRIRTRPPRLPRPRPRPRCWPRP , and I need its recorded shrunken log2 fold change.
*A* 0.386

*Q* I have this sequence here, RRIRNRPPRLPRPRPRPFLAPRP , and I need its recorded shrunken log2 fold change.
*A* -0.164

*Q* I have this sequence here, RRIRHRPPRLPRPRPRPEACPRP , and I need its recorded shrunken log2 fold change.
*A* -0.0115

*Q* I have this sequence here, RRIRKRPPRLPRPRPRPTDFPRP , and I need its recorded shrunken log2 fold change.
*A* 0.118

* * *

test system: Escherichia coli TOP10; experiment: shrunken log2 fold change of peptide-encoding DNA abundance (4.5 h post-induction vs induction); higher = less antimicrobial activity (less host growth inhibition); settings: time post-induction: 4.5 h; library: site-saturation at positions 5, 18, 19, 20
Decide by shrunken log2 fold change: equal to or exceeding -0.2 means Y, less means N.

Previously resolved entries follow.
RRIRPRPPRLPRPRPRPCGCPRP
Y
RRIRHRPPRLPRPRPRPAPAPRP
Y
RRIRIRPPRLPRPRPRPYATPRP
N

*Q* Test whether the sequence RRIRFRPPRLPRPRPRPATLPRP records shrunken log2 fold change of -0.2 or higher.
*A* Y

*Q* Test whether the sequence RRIRLRPPRLPRPRPRPGCKPRP records shrunken log2 fold change of -0.2 or higher.
*A* Y

*Q* Test whether the sequence RRIRGRPPRLPRPRPRPYKFPRP records shrunken log2 fold change of -0.2 or higher.
*A* Y

*Q* Test whether the sequence RRIRYRPPRLPRPRPRPFKWPRP records shrunken log2 fold change of -0.2 or higher.
*A* N

*Q* Test whether the sequence RRIRTRPPRLPRPRPRPLVYPRP records shrunken log2 fold change of -0.2 or higher.
*A* N

*Q* Test whether the sequence RRIRWRPPRLPRPRPRPVTRPRP records shrunken log2 fold change of -0.2 or higher.
*A* Y

*Q* Test whether the sequence RRIRMRPPRLPRPRPRPFMMPRP records shrunken log2 fold change of -0.2 or higher.
*A* Y

* * *

We begin with a simple list: items and their reported shrunken log2 fold change.
system: Escherichia coli TOP10; test: shrunken log2 fold change of peptide-encoding DNA abundance (4.5 h post-induction vs induction); higher = less antimicrobial activity (less host growth inhibition); details: time post-induction: 4.5 h; library: site-saturation at positions 5, 18, 19, 20
Write the value as a bare number.

Recorded shrunken log2 fold change, per entry:
RRIRARPPRLPRPRPRPGISPRP
0.337
RRIRLRPPRLPRPRPRPCFFPRP
-0.13
RRIRHRPPRLPRPRPRPFRLPRP
-0.322
RRIRHRPPRLPRPRPRPLWLPRP
0.0573

*Q* I have this sequence here, RRIRVRPPRLPRPRPRPIFMPRP , and I need its recorded shrunken log2 fold change.
*A* -0.363

*Q* I have this sequence here, RRIRIRPPRLPRPRPRPMIFPRP , and I need its recorded shrunken log2 fold change.
*A* -0.266

* * *

system: Escherichia coli TOP10; assay: shrunken log2 fold change of peptide-encoding DNA abundance (4.5 h post-induction vs induction); higher = less antimicrobial activity (less host growth inhibition); settings: time post-induction: 4.5 h; library: site-saturation at positions 5, 18, 19, 20
We begin with a simple list: items and their reported shrunken log2 fold change.
Write the value as a bare number.

*Q* I have this sequence here, RRIRSRPPRLPRPRPRPQYIPRP , and I need its recorded shrunken log2 fold change.
*A* -0.206

*Q* I have this sequence here, RRIRHRPPRLPRPRPRPHQLPRP , and I need its recorded shrunken log2 fold change.
*A* -0.196

*Q* I have this sequence here, RRIRQRPPRLPRPRPRPMDRPRP , and I need its recorded shrunken log2 fold change.
*A* 0.0291

*Q* I have this sequence here, RRIRDRPPRLPRPRPRPPLYPRP , and I need its recorded shrunken log2 fold change.
*A* 0.0303

* * *

system: Escherichia coli TOP10; test: shrunken log2 fold change of peptide-encoding DNA abundance (4.5 h post-induction vs induction); higher = less antimicrobial activity (less host growth inhibition); conditions: time post-induction: 4.5 h; library: site-saturation at positions 5, 18, 19, 20
Decide by shrunken log2 fold change: equal to or exceeding -0.09 means true (1), less means false (0).

Previously resolved entries follow.
RRIRGRPPRLPRPRPRPKKWPRP
true (1)
RRIRQRPPRLPRPRPRPKHMPRP
false (0)
RRIRIRPPRLPRPRPRPRYCPRP
false (0)
RRIRRRPPRLPRPRPRPEGDPRP
true (1)
RRIRIRPPRLPRPRPRPFMMPRP
true (1)
RRIRRRPPRLPRPRPRPSYVPRP
true (1)
RRIRTRPPRLPRPRPRPMIQPRP
false (0)
RRIRYRPPRLPRPRPRPMDHPRP
false (0)

*Q* Test whether the sequence RRIRIRPPRLPRPRPRPKTGPRP records shrunken log2 fold change of -0.09 or higher.
*A* false (0)

*Q* Test whether the sequence RRIRRRPPRLPRPRPRPQTKPRP records shrunken log2 fold change of -0.09 or higher.
*A* true (1)

*Q* Test whether the sequence RRIRARPPRLPRPRPRPIQMPRP records shrunken log2 fold change of -0.09 or higher.
*A* true (1)

* * *

tested on: Escherichia coli TOP10; test: shrunken log2 fold change of peptide-encoding DNA abundance (4.5 h post-induction vs induction); higher = less antimicrobial activity (less host growth inhibition); conditions: time post-induction: 4.5 h; library: site-saturation at positions 5, 18, 19, 20
Measurement Name: shrunken log2 fold change
Write the value as a bare number.

Recorded shrunken log2 fold change, per entry:
RRIRFRPPRLPRPRPRPKCCPRP
-0.149
RRIRIRPPRLPRPRPRPPRTPRP
0.195
RRIRHRPPRLPRPRPRPTVVPRP
-0.00918
RRIRWRPPRLPRPRPRPVALPRP
0.459

*Q* Form field: shrunken log2 fold change recorded for RRIRFRPPRLPRPRPRPNGCPRP with Escherichia coli TOP10 (enter value)
*A* -0.0256

*Q* Form field: shrunken log2 fold change recorded for RRIRARPPRLPRPRPRPRYPPRP with Escherichia coli TOP10 (enter value)
*A* 0.0172

*Q* Form field: shrunken log2 fold change recorded for RRIRMRPPRLPRPRPRPISKPRP with Escherichia coli TOP10 (enter value)
*A* 0.316

* * *

tested on: Escherichia coli TOP10; assay: shrunken log2 fold change of peptide-encoding DNA abundance (4.5 h post-induction vs induction); higher = less antimicrobial activity (less host growth inhibition); conditions: time post-induction: 4.5 h; library: site-saturation at positions 5, 18, 19, 20;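 also: peptides expressed intracellularly from a pBAD plasmid library in pooled LB shake-flask culture, induced with 0.3% L-arabinose, DNA abundance read by NGS, three biological replicates, DESeq2 with apeglm shrinkage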
Measurement Name: shrunken log2 fold change
Write the value as a bare number.

RRIRRRPPRLPRPRPRPFIQPRP
-0.0404
RRIRPRPPRLPRPRPRPRARPRP
0.58
RRIRFRPPRLPRPRPRPAHNPRP
-0.016
RRIRTRPPRLPRPRPRPTFAPRP
0.459
RRIRGRPPRLPRPRPRPYMIPRP
0.0548

*Q* I have this sequence here, RRIRFRPPRLPRPRPRPSGKPRP , and I need its recorded shrunken log2 fold change.
*A* -0.0093

FYI, the data here is from the supplement of paper PMC9112550.
